System: U2OS
PROTOCOL: Multiplex assay against U2OS
Type: toxicity, cell-based
PROTOCOL_CONDITIONS: human, 12 h, 1 µM, compound concentration 1 uM, replicate 2
Tag: 1.0 if measured Population Pyknosed Nuclei (%) is not below 6%, 0.0 if it is.

Item COc1cccc2cc(-c3nc([C@H]4CC[C@H](C(=O)O)CC4)n4ncnc(N)c34)[nH]c12 [OSI-027] with Population Pyknosed Nuclei (%) of 6% or above?
0.0

Next compound: CN[C@@H]1C[C@H]2O[C@@](C)([C@@H]1OC)n1c3ccccc3c3c4c(c5c6ccccc6n2c5c31)C(=O)NC4 [STAUROSPORINE]
1.0

Next compound: `O=C(Nc1cccnn1)N1CCC(=Cc2cccc(Oc3ccc(C(F)(F)F)cn3)c2)CC1`
1.0

Next compound: `Cc1cc(C)c(S(=O)(=O)N(Cc2ccc(-c3cccc(S(C)(=O)=O)c3)cc2)Cc2ccc(C(F)(F)F)o2)c(C)c1`
0.0

Next compound: O=C(Cc1ccc(-c2ccc(OCCN3CCOCC3)cc2)cn1)NCc1ccccc1 [TIRBANIBULIN]
0.0

Next compound: Cn1nc(C(F)(F)F)cc1-c1cnc(N2CCc3cc(S(=O)(=O)Nc4c(F)cc(Cl)cc4F)cc(N4CCCC4=O)c32)nc1 [TP-020]
0.0

* * *

Tested on: U2OS
PROTOCOL: Multiplex assay against U2OS
Format: toxicity, cell-based
PROTOCOL_CONDITIONS: human, 24 h, 1 µM, compound concentration 1 uM, replicate 1
Exercise: for every item that follows, state its recorded Population Normal (%).
Reply numerically in %, unit not repeated.

# returns recorded Population Normal (%) (system: U2OS) for `C=CCn1c(=O)c2cnc(Nc3ccc(N4CCN(C)CC4)cc3)nc2n1-c1cccc(C(C)(C)O)n1`
91

Next molecule: `Cc1cn(-c2cc(NC(=O)c3ccc(C)c(Nc4nccc(-c5cccnc5)n4)c3)cc(C(F)(F)F)c2)cn1`
93

Next molecule: `CCN1CCN(Cc2ccc(Nc3ncc(F)c(-c4cc(F)c5nc(C)n(C(C)C)c5c4)n3)nc2)CC1.CS(=O)(=O)O`
91

Next molecule: CN(C)C(=O)C(CCN1CCC(O)(c2ccc(Cl)cc2)CC1)(c1ccccc1)c1ccccc1.Cl [LOPERAMIDE HYDROCHLORIDE]
94

Next molecule: `CCn1c(=O)c(-c2ccc(-c3cncs3)cc2Cl)cc2cnc(Nc3ccc(N4CCN(C)CC4)cc3)nc21`
95

Next molecule: `CCn1cc(-c2ccnc3[nH]c(-c4cccc(CN(C)C)c4)cc23)c(-c2ccc(NC(=O)N(C)C)cc2)n1`
97

Next molecule: `S=C(NCCCc1c[nH]cn1)NCCCN(Cc1ccc(Cl)c(Cl)c1)c1ccc(Br)cn1`
93

Next molecule: `Cl.Oc1ccc2c3c1O[C@H]1c4[nH]c5c(c4C[C@@]4(O)[C@@H](C2)N(CC2CC2)CC[C@]314)C[C@@]1(O)[C@H]2Cc3ccc(O)c4c3[C@@]1(CCN2CC1CC1)[C@H]5O4`
96

Next molecule: `CCNc1cc(N[C@H]2CC[C@H](O)CC2)nc(Nc2ccc3c(ccn3Cc3ccccc3)c2)n1`
97

Next molecule: `CCCn1c(=O)c2[nH]c(-c3cnn(Cc4cccc(C(F)(F)F)c4)c3)nc2n(CC)c1=O`
92

Next molecule: `CCN1CCN(c2ccc(Nc3cc(N(C)C(=O)Nc4c(Cl)c(OC)cc(OC)c4Cl)ncn3)cc2)CC1`
91

Next molecule: `C=C1/C(=C\C=C2/CCC[C@]3(C)[C@@H]([C@H](C)/C=C/[C@H](C)C(C)C)CC[C@@H]23)C[C@@H](O)C[C@@H]1O`
97

Next molecule: COc1cc2ncnc(Nc3ccc(F)c(Cl)c3)c2cc1NC(=O)/C=C/CN1CCCCC1 [DACOMITINIB ANHYDROUS]
94

Next molecule: `O=C(Cc1ccc(-c2ccc(OCCN3CCOCC3)cc2)cn1)NCc1ccccc1`
91

Next molecule: `CN1CCN(C(=O)C(C)(C)c2ccc(C(=O)Nc3cn4cc(-c5cc(C(C)(C)C)cc(C(C)(C)C)c5)ccc4n3)cc2)CC1`
90

Next molecule: `COc1ccc(S(=O)(=O)N(CCO)c2ccccc2CN(C)C/C=C/c2ccc(Cl)cc2)cc1.O=P(O)(O)O`
96

Next molecule: `CCOc1cc(C(=O)N2CCC(N3CCN(C)CC3)CC2)ccc1Nc1ncc2c(n1)N(C1CCCC1)c1ccccc1C(=O)N2C`
95

Next molecule: `O=C1NC(=O)C(c2cnc3ccccn23)=C1c1cn2c3c(cc(F)cc13)CN(C(=O)N1CCCCC1)CC2`
96

Next molecule: `Cc1ccc(C(=O)Nc2cccc(C(F)(F)F)c2)cc1Nc1nc(-c2cccnc2)nc2c1cnn2C`
90

Next molecule: `NC(=O)c1cccc(-c2cc(Nc3ccc(OC(F)(F)F)cc3)ncn2)c1`
99

Next molecule: `CCc1cccc(CC)c1NC(=O)c1nn(C)c2c1CCc1cnc(Nc3ccc(N4CCN(C)CC4)cc3OC)nc1-2`
80

Next molecule: `O=C(Nc1ccc(-c2ccnc(Nc3ccc(N4CCOCC4)cc3)n2)cc1)[C@@H]1CCCN1`
96

Next molecule: `O=C(Nc1cccnn1)N1CCC(=Cc2cccc(Oc3ccc(C(F)(F)F)cn3)c2)CC1`
97

Next molecule: `C[C@H]1Oc2cc(cnc2N)-c2c(nn(C)c2C#N)CN(C)C(=O)c2ccc(F)cc21`
97

Next molecule: `COC(=N)c1nc2ccc3ncnc(Nc4ccc(OC)cc4F)c3c2s1`
94

Next molecule: `Cc1ccc2nc(NCCN)c3ncc(C)n3c2c1.O=C(O)C(F)(F)F.O=C(O)C(F)(F)F`
98

Next molecule: `CNC(=O)c1ccc(Nc2nc(OC3CCCC3)c3c(-c4ccc5nc(C)oc5c4)c[nH]c3n2)c(OC)c1`
94

Next molecule: `CCCS(=O)(=O)Nc1ccc(F)c(C(=O)c2c[nH]c3ncc(Cl)cc23)c1F`
96

Next molecule: `Cl.O=c1c2cccn2c2ccccc2n1CCCN1CCC(c2ccc(Cl)cc2)CC1`
95

Next molecule: `CNc1cc(Oc2cc(C(=O)Nc3cc(N4CCN(C)CC4)cc(C(F)(F)F)c3)ccc2C)ncn1`
90

Next molecule: `COc1cc(N2CCN(C)CC2)ccc1Nc1ncc2c(n1)N(C)c1ccccc1C(=O)N2C`
94

Next molecule: `CN[C@@H]1C[C@H]2O[C@@](C)([C@@H]1OC)n1c3ccccc3c3c4c(c5c6ccccc6n2c5c31)C(=O)NC4`
85

* * *

Tested on: Fibroblast
PROTOCOL: Incucyte cell viability with human fibroblast; also: filed as whole numbers so only -1 and 0 and 1 occur
Format: toxicity, cell-based
PROTOCOL_CONDITIONS: 18 h, 10 µM, compound concentration 10 uM, replicate number 1, timepoint 18 hours
Exercise: for every item that follows, state its recorded Growth Rate.
Hey, just send me the number, nothing else.

Fill in: Growth Rate of CN1C2CCC1CC(OC(c1ccc(F)cc1)c1ccc(F)cc1)C2.Cl (stereo not drawn) is ___
1

Next compound: `CCCn1c(=O)c2[nH]c(-c3cnn(Cc4cccc(C(F)(F)F)c4)c3)nc2n(CC)c1=O`
1

Next compound: `CCc1cccc(CC)c1NC(=O)c1nn(C)c2c1CCc1cnc(Nc3ccc(C(=O)NC4CCN(C)CC4)cc3OC(F)(F)F)nc1-2`
0

Next compound: `Cc1cn(-c2cc(NC(=O)c3ccc(C)c(Nc4nccc(-c5cccnc5)n4)c3)cc(C(F)(F)F)c2)cn1`
0

Next compound: `Cl.O=C(c1ccc(Nc2nccc(-c3cc4ccccc4s3)n2)cc1)N1CCC(N2CCCC2)CC1`
0

Next compound: `COc1cc(N2CCN(C)CC2)ccc1Nc1ncc2c(n1)N(C)c1ccccc1C(=O)N2C`
1

Next compound: `CCN1CCN(Cc2ccc(Nc3ncc(F)c(-c4cc(F)c5nc(C)n(C(C)C)c5c4)n3)nc2)CC1.CS(=O)(=O)O`
1

Next compound: `COC(=N)c1nc2ccc3ncnc(Nc4ccc(OC)cc4F)c3c2s1`
1

* * *

Tested on: HEK-293T
PROTOCOL: Multiplex assay against HEK293T;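 also: share of the cells with healthy nuclei that show this phenotype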
Format: toxicity, cell-based
PROTOCOL_CONDITIONS: human, 12 h, 10 µM, compound concentration 10 uM, replicate 1
EXPERIMENTAL_READOUT: Population Tubulin-Different-Phenotype (%)
Reply numerically in %, unit not repeated.

# returns recorded Population Tubulin-Different-Phenotype (%) (system: HEK-293T) for `NC(=O)c1cccc(-c2cc(Nc3ccc(OC(F)(F)F)cc3)ncn2)c1`
4

Next molecule: `CNC(=O)c1ccc(Nc2nc(OC3CCCC3)c3c(-c4ccc5nc(C)oc5c4)c[nH]c3n2)c(OC)c1`
58

Next molecule: `S=C(NCCCc1c[nH]cn1)NCCCN(Cc1ccc(Cl)c(Cl)c1)c1ccc(Br)cn1`
77

Next molecule: `C=CCn1c(=O)c2cnc(Nc3ccc(N4CCN(C)CC4)cc3)nc2n1-c1cccc(C(C)(C)O)n1`
47

Next molecule: `CCc1cccc(CC)c1NC(=O)c1nn(C)c2c1CCc1cnc(Nc3ccc(N4CCN(C)CC4)cc3OC)nc1-2`
54

Next molecule: CN(C)C(=O)C(CCN1CCC(O)(c2ccc(Cl)cc2)CC1)(c1ccccc1)c1ccccc1.Cl [LOPERAMIDE HYDROCHLORIDE]
86

Next molecule: `COc1cc(N2CCN(C)CC2)ccc1Nc1ncc2c(n1)N(C)c1ccccc1C(=O)N2C`
84

Next molecule: `Cc1cc(C)c(S(=O)(=O)N(Cc2ccc(-c3cccc(S(C)(=O)=O)c3)cc2)Cc2ccc(C(F)(F)F)o2)c(C)c1`
90
